Value source: ChEMBL document CHEMBL3885881

Parameter: PHOSPHORUS. Scope: all listed entries.
Organism: Rattus norvegicus
Assay: DrugMatrix - Regimen: Daily Repeat
Type: toxicity, organism-based, Sprague-Dawley
Design: regimen Daily Repeat, gender Male, age 6-8 weeks
Details: in vivo, po, 0 mg/kg, 72 h, tissue Plasma, route oral GAVAGE, dose level Control, time 3 day, vehicle 100 % SALINE
Quick reminder: number only, in mg/dL, skip the unit.

Some entries whose results are on file:
compound=Oc1ccccc1O quantity=PHOSPHORUS reported_value=12.7
compound="Cc1cc(CC(=O)O)n(C)c1C(=O)c1ccc(Cl)cc1 [ZOMEPIRAC]" quantity=PHOSPHORUS reported_value=12.7
compound=CCCc1nn(C)c2c(=O)[nH]c(-c3cc(S(=O)(=O)N4CCN(C)CC4)ccc3OCC)nc12 quantity=PHOSPHORUS reported_value=12.8

Turning now to a further record.
Prompt: Given the entry `CC(=O)OCC(CCn1cnc2cnc(N)nc21)COC(C)=O` , report its measured PHOSPHORUS.
Completion: 12.8
